test-name: Intrinsic clearance in rat microsomes
Type: ADME, Microsome
observed-property: CL

INSERT INTO results (molecule_smiles, observed_value) VALUES
  ('CCNC(=O)Nc1ccc(-c2nccc([C@]34CCOC[C@H]3C4)n2)cc1', '13.6 mL/min/g'),
  ('CCNC(=O)Nc1ccc(-c2nccc(N3CCOC[C@@H]3C)n2)cc1', '2 mL/min/g');

Provide CL values for the following items, in order.
1. C[C@H]1COCCN1c1cc(C(C)(C)S(C)(=O)=O)nc(-c2ccc(NC(=S)NCCO)cc2)n1
2. CC(C)(c1cc([C@]23CCOC[C@H]2C3)nc(-c2ccc(NC(=S)NCCO)cc2)n1)S(C)(=O)=O

0.8 mL/min/g
1.4 mL/min/g
